# Assay Target: PfFd-PfFNR (Plasmodium falciparum, UniProt C6KT68+Q8IED5)
# Construct: gene FNR; recombinant PfFNR (E. coli TG1 pTrc99A) and PfFd (E. coli JM105 pTrc99A), purified; PfFd 2Fe-2S, PfFNR flavoprotein
# Sequence (C6KT68 56-371): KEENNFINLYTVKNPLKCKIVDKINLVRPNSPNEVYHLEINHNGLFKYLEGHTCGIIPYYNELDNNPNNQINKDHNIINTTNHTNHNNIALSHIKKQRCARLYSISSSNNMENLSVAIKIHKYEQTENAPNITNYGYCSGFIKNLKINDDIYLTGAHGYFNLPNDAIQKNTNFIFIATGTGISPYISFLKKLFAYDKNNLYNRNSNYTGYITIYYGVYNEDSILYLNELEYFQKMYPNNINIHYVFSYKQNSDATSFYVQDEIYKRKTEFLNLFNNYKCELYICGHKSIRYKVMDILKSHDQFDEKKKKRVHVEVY
# Sequence (Q8IED5 97-194 limits assumed): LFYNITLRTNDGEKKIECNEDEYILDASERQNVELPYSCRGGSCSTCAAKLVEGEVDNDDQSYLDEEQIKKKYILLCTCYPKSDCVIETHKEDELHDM
# Experiment Notes: cytochrome c reduction at […] nm, FNR-Fd electron transfer
# Assay type: biochemical
Record form. Attribute: inhibition at 100 µM. Fill in for each entry.

# inhibition at 100 µM (compound: COc1cccc(/C=C/C(=O)c2ccc(N)cc2)c1OC ) is 31.6%

inhibition at 100 µM in this record for COc1ccccc1/C=C/C(=O)c1ccc(N)cc1 : 15.8%

Briefly, inhibition at 100 µM measured for Nc1ccc(C(=O)/C=C/c2ccccc2)cc1 : 10.9%

Lab note: COc1ccccc1/C=C/C(=O)c1ccccc1 gave inhibition at 100 µM of -10.3%

inhibition at 100 µM in this record for COc1ccc(/C=C/C(=O)c2ccc(Br)cc2)cc1 : 7.35%

Record O=C(/C=C/c1ccccc1)c1ccccc1 [compound 17, (E)-1,3-diphenyl-2-propen-1-one] , field inhibition at 100 µM: 22.1%

====

# Assay Target: PfFd-PfFNR (Plasmodium falciparum, UniProt C6KT68+Q8IED5)
# Construct: gene FNR; recombinant PfFNR (E. coli TG1 pTrc99A) and PfFd (E. coli JM105 pTrc99A), purified; PfFd 2Fe-2S, PfFNR flavoprotein
# Experiment Notes: cytochrome c reduction at […] nm, FNR-Fd electron transfer
# Format: biochemical
Parameter: inhibition at 100 µM
I'd appreciate it if you wrote the number followed by its unit.

For record COc1ccc(/C=C/C(=O)c2ccccc2)cc1 the listed inhibition at 100 µM is 4.69%

Lab book: inhibition at 100 µM of COc1cccc(/C=C/C(=O)c2ccc(N)cc2)c1 noted as 22.4%

Form: molecule = COc1ccc(OC)c(/C=C/C(=O)c2ccccc2)c1 ; inhibition at 100 µM = 5.88%

So for COc1ccc(OC)c(/C=C/C(=O)c2ccc(N)cc2)c1 , the logged inhibition at 100 µM turned out to be -14.1%

Given item COc1ccc(/C=C/C(=O)c2ccc(N)cc2)c(OC)c1 , the value recorded as its inhibition at 100 µM is 38.2%

Just so you know, measured inhibition at 100 µM for COc1cccc(/C=C/C(=O)c2ccccc2)c1 came out at 0%

The molecule COc1ccc(/C=C/C(=O)c2ccc(Br)cc2)c(OC)c1 showed inhibition at 100 µM equal to 26.5%

inhibition at 100 µM recorded for this molecule, COc1cccc(/C=C/C(=O)c2ccccc2)c1OC , is -5.88%

Noted for COc1ccc(/C=C/C(=O)c2ccccc2)c(OC)c1 : its inhibition at 100 µM reads 6.25%

Input COc1ccc(OC)c(/C=C/C(=O)c2ccc(Br)cc2)c1 . Output inhibition at 100 µM: 11.8%
